Listed here: items and their measured Cytotoxicity IC50.
Molecular target: T1, human LIV-1 (human, UniProt Q13433 29-755)
T1 sequence (looked up): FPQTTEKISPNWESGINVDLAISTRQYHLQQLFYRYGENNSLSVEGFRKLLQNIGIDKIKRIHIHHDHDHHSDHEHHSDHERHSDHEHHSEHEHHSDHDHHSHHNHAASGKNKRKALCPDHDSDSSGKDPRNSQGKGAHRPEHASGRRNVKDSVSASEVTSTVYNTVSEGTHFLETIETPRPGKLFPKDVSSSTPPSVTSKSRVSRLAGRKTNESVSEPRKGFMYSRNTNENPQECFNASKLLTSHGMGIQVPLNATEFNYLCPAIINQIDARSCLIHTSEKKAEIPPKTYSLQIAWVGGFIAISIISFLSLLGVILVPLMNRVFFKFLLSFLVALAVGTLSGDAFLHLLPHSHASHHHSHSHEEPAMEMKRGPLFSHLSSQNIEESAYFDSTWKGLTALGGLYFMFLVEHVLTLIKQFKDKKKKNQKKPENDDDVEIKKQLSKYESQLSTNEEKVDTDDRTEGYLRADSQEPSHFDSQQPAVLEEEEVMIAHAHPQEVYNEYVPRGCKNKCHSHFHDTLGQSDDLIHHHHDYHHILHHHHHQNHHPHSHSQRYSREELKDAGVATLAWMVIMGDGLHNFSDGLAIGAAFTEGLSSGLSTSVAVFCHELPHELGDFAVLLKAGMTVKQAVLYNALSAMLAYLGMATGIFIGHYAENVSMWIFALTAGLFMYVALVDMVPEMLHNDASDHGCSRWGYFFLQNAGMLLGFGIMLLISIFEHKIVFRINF
Test: cell-based or functional assay

| BINDER | Cytotoxicity IC50, nM |
| --- | --- |
| 108H1D4 (antibody, V domains shown, Tested as chimeric antibody) VH: EVKLVESGGDLVQPGGSRKLSCAASGFTFSDYGMAWFRQAPGKGPEWVAFISNLAYNIYYADTVTGRFTISRENARNTLYLEMSSLRSEDTAMYYCAREGGITTVPATDYFDYWGQGTTLTVSS VL: DIQMTQTTSSLSASLGDRVTFSCRASQDIRNYLNWYQQKPDGTVKLLIYYTSRLHSGVPSRFSGSGSGTDYSLTINNLEQEDLATYFCQQVNALPLTFGAGTKLELK | 0.7 |
| 290F10G10 (antibody, V domains shown, Tested as chimeric antibody) VH: IQLQQSGAELARPGASVKLSCKASGYTFTSYWIHWVKERPGQGLEWIGTIYPGDGDTRSTQKFKDKATVTAEKSSSTVYMQLSSLASEDSAVYYCTRSLIHDDYDKYYFDYWGQGTTLTVSS VL: DIQMTQSPSSLSASLGGKVTITCKARQDINKYIAWYQHKPGKGPRLLIHYTSILQPGIPSRFSGSGSGRDYSFSISNLEPEDIATYYCLQYDYFFTFGSGTKLEIK | 1.33 |
| 136F3D10C10 (antibody, V domains shown, Tested as chimeric antibody) VH: QVQLQQSGPELVKPGASVRIFCKASGYTFTSFHIHWVKQRPGQGLEWIGWIYPGNDNTDHNEKFKGKATLSADKSSSTVYMQLSSLTSEDSAVYFCGRSNYYGPLFAYWGQGTLVTVSA VL: DILMTQTPLSLPVSLGDQASISCRSSQNIVRSNGNTYLEWYLQKPGQSPKVLIYRVSNRFSGVPDRFSGSGSGTDFTLKISRVEAEDLGVYYCFQGSYVPYTFGGGTKLEIK | 1.21 |
